These data points were gathered from patent US8362000B2.

target: MGL (Rattus norvegicus, UniProt Q8R431); construct: one g rat brain was homogenized using a Polytron homogenizer; from tissue; host or cells: rat brain homogenate; assay: 2-AG accumulation assay in rat brain homogenate; assay type: biochemical; settings: rat brain homogenate; compound 0.01 μM; 2-AG accumulation as percent of vehicle; read-out: Rat Brain 2AG % VehCntrl (%) @ 0.01 μM
Sequence (Q8R431 whole entry): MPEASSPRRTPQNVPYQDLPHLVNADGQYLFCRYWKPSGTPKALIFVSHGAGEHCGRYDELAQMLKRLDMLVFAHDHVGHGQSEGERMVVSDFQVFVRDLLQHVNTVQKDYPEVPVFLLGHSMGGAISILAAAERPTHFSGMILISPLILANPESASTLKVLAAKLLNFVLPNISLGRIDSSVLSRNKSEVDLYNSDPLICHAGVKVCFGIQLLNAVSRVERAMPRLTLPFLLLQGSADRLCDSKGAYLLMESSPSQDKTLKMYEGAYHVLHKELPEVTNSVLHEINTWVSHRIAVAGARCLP
recorded-endpoint: 2-AG accumulation, % of vehicle control at 0.01 µM

Here's what some known entries look like.
O=C(c1cc2cc(C(F)(F)F)ccc2s1)N1CC(N2CCN(C(=O)c3nccs3)CC2)C1    243%
O=C(c1ccc(-c2ccccc2)cc1)N1CC(N2CCN(C(=O)c3ccco3)CC2)C1    75%
Cc1nc(-c2ccc(Cl)cc2)sc1C(=O)N1CC(N2CCN(C(=O)c3nccs3)CC2)C1    119%

Next:
Record O=C(c1ccccc1)N1CCN(C2CN(C(=O)c3ccc(-c4ccccc4)cc3)C2)CC1 , field 2-AG accumulation, % of vehicle control at 0.01 µM: 122%

* * *

target: mutant MGL (Homo sapiens, UniProt Q99685, L169S/L176S); assay: MGL ThermoFluor assay - mutant; assay type: binding; conditions: ThermoFluor thermal stability binding assay, read-out: MGL mutant ThermoFluor Kd
Sequence (Q99685 whole entry L169S/L176S): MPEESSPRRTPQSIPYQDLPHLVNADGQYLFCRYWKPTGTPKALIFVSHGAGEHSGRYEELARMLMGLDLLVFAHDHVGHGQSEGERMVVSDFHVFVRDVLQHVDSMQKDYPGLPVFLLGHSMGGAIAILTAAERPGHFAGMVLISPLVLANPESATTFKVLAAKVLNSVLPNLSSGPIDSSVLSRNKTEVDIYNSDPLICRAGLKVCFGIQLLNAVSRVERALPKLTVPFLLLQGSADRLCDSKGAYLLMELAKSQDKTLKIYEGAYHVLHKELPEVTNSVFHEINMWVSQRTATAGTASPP
Below, each of the molecules is paired with its reported pKd value.
Just the number, please; pKd means minus log10 of the concentration in mol/L.

Here's what some known entries look like.
O=C(c1ccc2c(c1)CCN(C(=O)c1cccs1)C2)N1CC(N2CCN(C(=O)c3nccs3)CC2)C1 [Cpd 665]    7.24
Cc1c(C(=O)N2CC(N3CCN(C(=O)c4nccs4)CC3)C2)sc2ccc(C(F)(F)F)cc12 [Cpd 897]    8.70
COc1cc(-n2ccc3cc(C(=O)N4CC(N5CCN(C(=O)c6ccccc6)CC5)C4)ccc32)ccc1C#N [Cpd 633]    6.80
O=C(c1cc2c(C(F)(F)F)cccc2s1)N1CC(N2CCN(C(=O)c3nccs3)CC2)C1 [Cpd 327]    7.86
O=C(c1ccc(OCc2ccc3ccccc3n2)cc1)N1CC(N2CCN(C(=O)c3nccs3)CC2)C1 [Cpd 967]    7.36

Record COc1cc(C(=O)N2CC(N3CCN(C(=O)c4ccccc4)CC3)C2)ccc1-c1ccc(F)c(Cl)c1 [Cpd 263] , field pKd: 8.30

Record O=C(c1cscn1)N1CCN(C2CN(C(=O)c3cccc4nc(-c5ccc(Cl)cc5)oc34)C2)CC1 [Cpd 1380] , field pKd: 6.61

Record CS(=O)(=O)c1cccc(-c2ccc(C(=O)N3CC(N4CCN(C(=O)c5cscn5)CC4)C3)cc2)c1 [Cpd 236] , field pKd: 6.70

Record O=C(c1cscn1)N1CCN(C2CN(C(=O)c3ccc(-c4ccc(Cl)c(C(F)(F)F)c4)cc3Cl)C2)CC1 [Cpd 266] , field pKd: 7.80

Record O=C(c1ccccc1)N1CCN(C2CN(C(=O)c3cccc4[nH]c(-c5ccccc5)nc34)C2)CC1 [Cpd 601] , field pKd: 6.28

Record Cc1cc(C(=O)N2CC(N3CCN(C(=O)c4ccccc4)CC3)C2)ccc1-c1ccc(Cl)c(C(F)(F)F)c1 [Cpd 260] , field pKd: 7.70

Record O=C(c1ccc(OCc2ccc(Cl)s2)cc1)N1CC(N2CCN(C(=O)c3nccs3)CC2)C1 [Cpd 962] , field pKd: 8.30

Record O=C(c1ccccc1)N1CCN(C2CN(C(=O)c3cccc4[nH]c(-c5ccc(Cl)cc5)nc34)C2)CC1 [Cpd 607] , field pKd: 6.00

Record O=C(c1ccc2c(c1)CCCN2)N1CC(N2CCN(C(=O)c3nccs3)CC2)C1 [Cpd 357] , field pKd: 6.62

Record O=C(c1nccs1)N1CCN(C2CN(C(=O)c3cccc4oc(-c5cccnc5)nc34)C2)CC1 [Cpd 1251] , field pKd: 6.84

Record O=C(c1ccccn1)N1CCN(C2CN(C(=O)c3sc4cc(F)ccc4c3Cl)C2)CC1 [Cpd 810] , field pKd: 6.54

Record Cc1cc(C(=O)N2CC(N3CCN(C(=O)c4ccccc4)CC3)C2)ccc1-c1cccc(C(F)(F)F)c1 [Cpd 243] , field pKd: 7.78

Record O=C(c1cc2cc(-c3cccc(C(F)(F)F)c3)ccc2o1)N1CC(N2CCN(C(=O)c3nccs3)CC2)C1 [Cpd 1343] , field pKd: 7.11

Record Cc1cc(-c2ccc(F)c(Cl)c2)ccc1C(=O)N1CC(N2CCN(C(=O)c3cscn3)CC2)C1 [Cpd 253] , field pKd: 7.67

Record O=C(c1nccs1)N1CCN(C2CN(C(=O)c3sc4cc(C(F)(F)F)ccc4c3Cl)C2)CC1 [Cpd 324] , field pKd: 9.40

Record O=C(c1ccc2c(c1)CCN(Cc1ccccc1)C2)N1CC(N2CCN(C(=O)c3nccs3)CC2)C1 [Cpd 680] , field pKd: 7.28

Record O=C(c1ccc2c(c1)CCCN2S(=O)(=O)c1cccc(F)c1)N1CC(N2CCN(C(=O)c3nccs3)CC2)C1 [Cpd 368] , field pKd: 7.26

Record O=C(c1ccc(OCc2cccc(Cl)c2)c(Cl)c1)N1CC(N2CCN(C(=O)c3nccs3)CC2)C1 [Cpd 401] , field pKd: 8.78

Record O=C(c1ccccc1)N1CCN(C2CN(C(=O)c3ccc(OCc4cccc(Cl)c4)c(Cl)c3)C2)CC1 [Cpd 397] , field pKd: 7.48

Record Cc1nc2cc(C(=O)N3CC(N4CCN(C(=O)c5cscn5)CC4)C3)ccc2n1C1CCCCC1 [Cpd 832] , field pKd: 7.23

Record O=C(c1ccc(OCc2cccc(Br)n2)cc1)N1CC(N2CCN(C(=O)c3nccs3)CC2)C1 [Cpd 983] , field pKd: 7.72

Record O=C(c1ccccc1)N1CCN(C2CN(C(=O)c3ccc4c(ccn4S(=O)(=O)c4ccccc4)c3)C2)CC1 [Cpd 130] , field pKd: 6.60

Record O=C(c1cc2cccc(C(F)(F)F)c2s1)N1CC(N2CCN(C(=O)c3nccs3)CC2)C1 [Cpd 328] , field pKd: 7.09

Record Cc1c(C(=O)N2CC(N3CCN(C(=O)c4nccs4)CC3)C2)sc2cc(F)ccc12 [Cpd 684] , field pKd: 8.40

Record O=C(c1ccccc1)N1CCN(C2CN(C(=O)c3ccc4nc(-c5cccc(F)c5)sc4c3)C2)CC1 [Cpd 599] , field pKd: 6.32

* * *

target: purified wild type MGL (wt-MGLL 6H-11-313) (Homo sapiens, UniProt Q99685)
Sequence (Q99685 whole entry): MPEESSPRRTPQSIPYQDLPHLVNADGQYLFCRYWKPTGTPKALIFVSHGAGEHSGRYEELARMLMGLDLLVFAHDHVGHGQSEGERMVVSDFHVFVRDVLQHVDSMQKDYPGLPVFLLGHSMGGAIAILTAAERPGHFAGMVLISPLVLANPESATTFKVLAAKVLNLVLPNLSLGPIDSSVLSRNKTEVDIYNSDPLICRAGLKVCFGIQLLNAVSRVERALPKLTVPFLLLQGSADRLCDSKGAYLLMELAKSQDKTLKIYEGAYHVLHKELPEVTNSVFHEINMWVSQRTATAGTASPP
Binarize IC50 at 100 nM; below is true, at or above is false.

Please review the entries below; each comes with its answer.
O=C(c1ccc(S(=O)(=O)c2cccc(C(F)(F)F)c2)cc1)N1CC(N2CCN(C(=O)C(F)(F)F)CC2)C1 [Cpd 1493]    false
O=C(c1ccccc1)N1CCN(C2CN(C(=O)c3cccc4[nH]c(-c5ccccc5Cl)nc34)C2)CC1 [Cpd 608]    false
O=C(c1nccs1)N1CCN(C2CN(C(=O)c3sc4ccc(-c5ccc(C(F)(F)F)cc5)cc4c3F)C2)CC1 [Cpd 1092]    true

Query: State whether 100 nM exceeds IC50 recorded for O=C(c1ccc(Oc2ncc(C(F)(F)F)cc2Cl)cc1)N1CC(N2CCN(C(=O)c3nccs3)CC2)C1 [Cpd 663] .
Response: true

Query: State whether 100 nM exceeds IC50 recorded for O=C(c1ccc2c(=O)c3ccccc3oc2c1)N1CC(N2CCN(C(=O)c3nccs3)CC2)C1 [Cpd 710] .
Response: false

Query: State whether 100 nM exceeds IC50 recorded for Cc1c(C(=O)N2CC(N3CCN(C(=O)c4nccs4)CC3)C2)sc2ccc(-c3ccccc3)cc12 [Cpd 1346] .
Response: true

Query: State whether 100 nM exceeds IC50 recorded for Cc1cc(Br)ccc1C(=O)N1CC(N2CCN(C(=O)c3nccs3)CC2)C1 [Cpd 786] .
Response: false

Query: State whether 100 nM exceeds IC50 recorded for Cc1ccc2c(C(F)(F)F)c(C(=O)N3CC(N4CCN(C(=O)c5ccccc5)CC4)C3)sc2c1 [Cpd 510] .
Response: false

Query: State whether 100 nM exceeds IC50 recorded for O=C(c1ccc[nH]1)N1CCN(C2CN(C(=O)c3cc4ccc(C(F)(F)F)nc4[nH]3)C2)CC1 [Cpd 1447] .
Response: false

Query: State whether 100 nM exceeds IC50 recorded for CC(c1ccccc1)n1cc2cc(C(=O)N3CC(N4CCN(C(=O)c5nccs5)CC4)C3)ccc2n1 (stereo not drawn) [Cpd 1040] .
Response: true

Query: State whether 100 nM exceeds IC50 recorded for O=C(c1ccccc1)N1CCN(C2CN(C(=O)c3ccc4c(ccn4-c4cc(F)ccc4F)c3)C2)CC1 [Cpd 578] .
Response: true

Query: State whether 100 nM exceeds IC50 recorded for O=C(c1ccccc1)N1CCN(C2CN(C(=O)c3ccc4c(ccn4-c4cc(F)c(F)c(F)c4)c3)C2)CC1 [Cpd 569] .
Response: true

Query: State whether 100 nM exceeds IC50 recorded for Cc1c(Cc2ccc(C(F)(F)F)cc2)cccc1C(=O)N1CC(N2CCN(C(=O)c3cscn3)CC2)C1 [Cpd 1009] .
Response: true

Query: State whether 100 nM exceeds IC50 recorded for O=C(c1ccccc1)N1CCN(C2CN(C(=O)c3cc4cc(-c5ccccc5)ccc4o3)C2)CC1 [Cpd 605] .
Response: false
